Parameter: ELISA (OD 450) at 300 nM. Scope: all listed entries.
system_under_test: soluble TSHR protein (ELISA coat) (human, UniProt P16473 22-260, limits assumed)
assay_info: ELISA, plate coated with soluble TSHR, antibody at 300 nM, anti-human IgG Fc-HRP;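 further: TSHR coated at 2 µg/ml, bound antibody revealed by goat anti-human IgG Fc HRP, color developed with TMB and stopped with H2SO4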
Write the number in OD 450 without appending the unit.

{"columns": ["binder", "ELISA (OD 450) at 300 nM"],
 "data": [
  ["TSHB-22 (antibody, V domains shown) VH: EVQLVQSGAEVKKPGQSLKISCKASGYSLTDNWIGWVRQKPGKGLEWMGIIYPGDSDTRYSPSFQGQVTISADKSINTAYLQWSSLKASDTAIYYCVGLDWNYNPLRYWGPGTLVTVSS VL: QSVLTQPPSVSGAPGQRVTISCSGSSSDIGSNYVSWYQQLPGTAPKLLIYDNNKRPSGVPDRFSGSKSGTSASLAITGLQAEDEADYYCGTWDSRLGIAVFGGGTKLTVL", 0.53],
  ["TSHB-8 (antibody, V domains shown) VH: EVQLVQSGAEVKKPGESLKISCKASGYSLTDNWIGWVRQKPGKGLEWMGIIYPGDSDTRYSPSFQGQVTISADKSISTAYLQWSSLKASDTAMYYCVGLDWNYNPLRYWGQGTLVTVSS VL: QSVLTQPPSVSAAPGQKVTISCSGSSSDIGSNYVSWYQQFPGTAPKLLIYDNNKRPSAIPDRFSGSKSGTSATLGITGLQTGDEADYYCGTWDSRLGIAVFGGGTQLTVL", 0.586]
]}

[ask] Report ELISA (OD 450) at 300 nM for TSHB-1 (antibody, V domains shown) VH: EVQLVQSGAEVKKPGESLKISCKASGYSLTDNWIGWVRQKPGKGLEWMGIIYPGDSDTRYSPSFQGQVTISADKSISTAYLQWSSLKASDTAIYYCVGLDWNYNPLRYWGQGTLVTVSS VL: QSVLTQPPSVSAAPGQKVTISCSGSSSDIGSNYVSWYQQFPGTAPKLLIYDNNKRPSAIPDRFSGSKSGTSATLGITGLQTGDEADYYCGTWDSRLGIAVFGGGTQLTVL please.
[reply] 0.641

Source listed as patent US20250388688A1.
